System: NOMO1
run-description: cell viability relative to DMSO control; higher = less cytotoxic
condition-parameters: RPMI 5 mM glucose + 10% FBS; 48 h; 0.00234 µM
Measured cell viability, listed per entry for reference.
Write down the numeric answer in % and omit the unit.

>>> endpoint_result("Cc1ccc(NC(=O)c2ccc(CN3CCN(C)CC3)cc2)cc1Nc1nccc(-c2cccnc2)n1")
103

get_value(item= COc1ccc(/C=C\c2cc(OC)c(OC)c(OC)c2)cc1O , readout=cell viability) returns 33.7

response.value for Nc1nc(-c2nn(Cc3ccccc3F)c3ncccc23)nc(N)c1N1CCOCC1 (field: cell viability) = 93.8

Lab note: C[C@H]([C@H](O)CCC(C)(C)O)[C@H]1CC[C@@]2(O)C/3=C/C(=O)[C@@H]4C[C@@H](O)[C@@H](O)C[C@]4(C)[C@H]3CC[C@]12C gave cell viability of 115

---

System: SEM cells
run-description: cell viability relative to DMSO control; higher = less cytotoxic
condition-parameters: RPMI 5 mM glucose + 10% FBS; 48 h; 0.569 µM
assay-endpoint: cell viability (%)
Give the number; % is assumed, so skip it.

>>> endpoint_result("CC(=O)N1CCN(c2ccc(OCc3nn(C)c(C)c3-c3cccc4c(CCCOc5cc(C)c(Cl)c(C)c5)c(C(=O)O)n(Cc5cccnc5)c34)cc2)CC1")
117
>>> endpoint_result("O=C(O)[C@H](Cc1c[nH]c2ccccc12)N1C(=O)c2ccccc2C1=O")
90.7
>>> endpoint_result("COc1cc2ncnc(-n3nc(-c4ccccn4)nc3N)c2cc1OC")
91.2
>>> endpoint_result("FC(F)(F)c1ccc(Nc2nc3cc(Oc4ccnc(-c5ncc(C(F)(F)F)[nH]5)c4)ccc3[nH]2)cc1")
100
>>> endpoint_result("CN(N=O)C(=O)N[C@H]1C(O)OC(CO)[C@@H](O)[C@@H]1O (stereo partly drawn)")
86.5

According to the records, this molecule COc1cc2c(Nc3ccc(NC(=O)c4ccccc4)cc3)ncnc2cc1OCCCN1CCOCC1 displays cell viability of 144

What the record says about CCC(=O)O[C@@]1([C@@H](C)C[C@H]2[C@@H]3CCC/4=C/C(=O)/C=C\[C@]4(C)[C@@]3(F)[C@@H](O)C[C@]12C)C(=O)CCl : cell viability is 65.1

Lab note: O=C1CSC(=O)N1C(CCc1ccncc1)COc1ccc(-c2cccc([N+](=O)[O-])c2)cc1 (stereo not drawn) gave cell viability of 117

---

# cell viability per entry
Test system: SEM cells
run-description: cell viability relative to DMSO control; higher = less cytotoxic
condition-parameters: HPLM + 10% dialyzed FBS; 48 h; 1.71 µM

Below, each entry is followed by its recorded cell viability result.
>>> endpoint_result("CC(C)(C)/[N+]([O-])=C/c1ccc([S+](=O)([O-])[O][Na])cc1[S+](=O)([O-])[O][Na]")
"90.3%"
>>> endpoint_result("C[C@@H]1CC[C@@]2(OC1)O[C@H]3C[C@H]4[C@@H]5C/C=C6/C[C@H](CC[C@]6(C)[C@H]5CC[C@]4(C)[C@H]3[C@@H]2C)O[C@@H]7O[C@H](CO)[C@@H](O[C@@H]8O[C@@H](C)[C@H](O)[C@@H](O)[C@H]8O)[C@H](O)[C@H]7O[C@@H]9O[C@@H](C)[C@H](O)[C@@H](O)[C@H]9O")
"115%"
>>> endpoint_result("O=C(NC1CCNCC1)c1n[nH]cc1NC(=O)c1c(Cl)cccc1Cl")
"16.4%"

Okay, next one:
In plain terms, NC(=O)c1cccc(-c2cccc(OC(=O)NC3CCCCC3)c2)c1 has a documented cell viability of 96.5%

---

Reported cell viability values follow for various molecules
System: SEM cells
run-description: cell viability relative to DMSO control; higher = less cytotoxic
condition-parameters: RPMI 5 mM glucose + 10% dialyzed FBS; 48 h; 0.00234 µM
Provide the reading as a plain figure in %.

Record excerpt, results attached:
>>> endpoint_result("CC#C[C@]1(O)CC[C@H]2[C@@H]/3CCC/4=C/C(=O)CCC4=C3[C@H](C[C@]12C)C5=CC=C(C=C5)N(C)C")
91.6
>>> endpoint_result("CSC1=CC(=CC=C1)NC2=NC3=C(C=N2)/C=C(C(=O)N3C)/C4=C(Cl)C=CC=C4Cl")
89
>>> endpoint_result("CCOC(=O)C/1=C(C)/NC(=S)NC1C2=CC=CC(=C2)O (stereo not given)")
100
>>> endpoint_result("CC(C)C[C@H](CN)CC(=O)O")
105

We now examine a further molecule.
GET /value?item= COCCOC(=O)C/1=C(C)/NC/2=C(C1C3=CC=CC(=C3)O)/C(=O)CC(C2)C4=C(OC)C=CC=C4 (stereo not given) &field=cell viability returns 79.2

---

Reported cell viability is given for each of the following compounds.
Tested on: NOMO1
run-description: cell viability relative to DMSO control; higher = less cytotoxic
condition-parameters: RPMI 5 mM glucose + 10% dialyzed FBS; 48 h; 15.4 µM
Give your result in % as a bare value.

>>> endpoint_result("Cc1ccc(NC(=O)c2ccc(CN3CCN(C)CC3)cc2)cc1Nc1nccc(-c2cccnc2)n1")
104
>>> endpoint_result("CC(=O)N1CCN(c2ccc(OCc3nn(C)c(C)c3-c3cccc4c(CCCOc5cc(C)c(Cl)c(C)c5)c(C(=O)O)n(Cc5cccnc5)c34)cc2)CC1")
137
>>> endpoint_result("C=C(C)[C@@H]1CC[C@]2(C)CC[C@]3(C)[C@H](CC[C@@H]4[C@@]5(C)CC[C@H](O)C(C)(C)[C@@H]5CC[C@]43C)[C@@H]12")
124
>>> endpoint_result("Cc1cc(O)c2c3c4c(cc(O)c13)C(C)(C)C(=O)c1c(O)cc(O)c(c1-4)C2=O")
114
>>> endpoint_result("CN(C)CCOC(c1ccccc1)c1ccccc1")
119

Entry CCNC(=O)C[C@@H]1\N=C(C2=CC=C(Cl)C=C2)/C3=C(C=CC(=C3)OC)[N]4C(=NN=C14)C : cell viability on NOMO1 = 28.4

The observed cell viability for CN1C(=O)\C(=C/C(=C1/NC2=C(F)C=C(I)C=C2)C(=O)NOCCO)C when tested with NOMO1 stands at 43.1

Record for Cl.c1cnc2cc3c(cc2n1)C1CNCC3C1 under target or system NOMO1: cell viability reported as 108

---

Recorded AUC of viability dose-response curve by entry
Test system: P12-Ichikawa
run-description: AUC of viability dose-response curve (% viability x log10 dose units); higher = less sensitive
condition-parameters: RPMI 5 mM glucose + 10% FBS; 48 h
Enter the number alone.

>>> endpoint_result("Cc1nc(Nc2ncc(C(=O)Nc3c(C)cccc3Cl)s2)cc(N2CCN(CCO)CC2)n1")
396
>>> endpoint_result("COc1ccc(/C=C\\c2cc(OC)c(OC)c(OC)c2)cc1O")
57
>>> endpoint_result("CN1C(=O)C(Cc2c[nH]c3ccccc23)NC1=S (stereo unspecified)")
450
>>> endpoint_result("O=C1\\C=C(/OC2=C1C=CC=C2C3=CC=CC=C3)N4CCOCC4")
393
>>> endpoint_result("Cc1ccc(NC(=O)c2ccc(CN3CCN(C)CC3)cc2)cc1Nc1nccc(-c2cccnc2)n1")
470
>>> endpoint_result("Cc1c[nH]c(/C=C2\\C(=O)Nc3ccccc32)c1CCC(=O)O")
413
>>> endpoint_result("COC1=CC=C2Nc3cc(Cl)ccc3C(N=C3C=C(CN4CCCC4)C(=O)C(CN4CCCC4)=C3)=C2N1")
468
>>> endpoint_result("O=C1c2c(O)cccc2[C@H]([C@@H]2O[C@H](CO)[C@@H](O)[C@H](O)[C@H]2O)c2cc(CO)cc(O)c21")
467

Noted for COCCCOc1cc(C[C@@H](C[C@H](N)[C@@H](O)C[C@H](C(=O)NCC(C)(C)C(N)=O)C(C)C)C(C)C)ccc1OC : its AUC of viability dose-response curve reads 471

Noted for CCN1CCCC1CNC(=O)c1cc(S(=O)(=O)CC)c(N)cc1OC (stereo unspecified) : its AUC of viability dose-response curve reads 461

Per the record, C[C@@H]1C[C@H]2[C@@H]3\C=C(C)/C4=C/C5=C(C[C@]4(C)[C@H]3[C@@H](O)C[C@]2(C)[C@@]1(O)C(=O)COC(C)=O)C=N[N]5C6=CC=CC=C6 has AUC of viability dose-response curve of 264

---

A collection of compounds and their measured cell viability
Tested on: P12-Ichikawa
run-description: cell viability relative to DMSO control; higher = less cytotoxic
condition-parameters: RPMI 5 mM glucose + 10% FBS; 48 h; 0.0211 µM
The answer is to be given in %; state only the numeric part.

Answered cases to consult:
>>> endpoint_result("CO[C@H]1C[C@@H]2CC[C@@H](C)[C@@](O)(O2)C(=O)C(=O)N2CCCC[C@H]2C(=O)O[C@H]([C@H](C)C[C@@H]2CC[C@@H](OP(C)(C)=O)[C@H](OC)C2)CC(=O)[C@H](C)/C=C(\\C)[C@@H](O)[C@@H](OC)C(=O)[C@H](C)C[C@H](C)/C=C/C=C/C=C/1C")
126
>>> endpoint_result("COc1ccc(/C=C\\c2cc(OC)c(OC)c(OC)c2)cc1O")
14.2
>>> endpoint_result("C#Cc1cccc(Nc2ncnc3cc(OCCOC)c(OCCO)cc23)c1")
119
>>> endpoint_result("O=C(O)c1ccc2cc(-c3ccc(O)c(C45CC6CC(CC(C6)C4)C5)c3)ccc2c1")
122
>>> endpoint_result("OC[C@H]1O[C@@H](Oc2ccc(O)cc2)[C@H](O)[C@@H](O)[C@@H]1O")
94.9
>>> endpoint_result("COC1=CC=C2Nc3cc(Cl)ccc3C(N=C3C=C(CN4CCCC4)C(=O)C(CN4CCCC4)=C3)=C2N1")
130
>>> endpoint_result("COCCOC(=O)C/1=C(C)/NC/2=C(C1C3=CC=CC(=C3)O)/C(=O)CC(C2)C4=C(OC)C=CC=C4 (centres undefined)")
112
>>> endpoint_result("CSC1=CC(=CC=C1)NC2=NC3=C(C=N2)/C=C(C(=O)N3C)/C4=C(Cl)C=CC=C4Cl")
109

Here Nc1ccccc1NC(=O)c1ccc(CNc2nccc(-c3cccnc3)n2)cc1 was tested on P12-Ichikawa, and its cell viability came to 110

// provenance: the supplement of paper PMC11451515
